# testName: Pharmacokinetic (PK) studies via intravenous infusion, Sprague-Dawley rat
# Format: in vivo
# measurementParameters: male, plasma, 1 hour-IV infusion 8 mg/kg, 1.0833 hr, one rat

smilesCode	concentration at 1.0833 hr / ng/mL
COC(=O)[C@H]1Cc2c([nH]c3ccccc23)[C@H](c2ccc(S(=O)(=O)N[C@]34C[C@H]5C[C@H](C[C@H](C5)C3)C4)cc2)N1C(=O)CCl	97.5

* * *

# testName: PK profile, IV plasma concentration and PK parameters
# Type: in vivo
# measurementParameters: Balb/C nude, mouse, 5 mg/kg IV, BID q12, post 2nd dose, 0.25 h, 30% Kolliphor EL in water

smilesCode	concentration at 0.25 h / ng/mL
C#CC(=O)N1[C@@H](CCCC)Cc2c([nH]c3c(F)cc(F)cc23)[C@@H]1c1ccc(F)cc1	4640
